TARGET_DESC: V106A mutant RT (HIV-1 RT) (Human immunodeficiency virus type 1 group M subtype B, UniProt P03366, V705A)
Construct: mutations that occur in the reverse transcriptase segment of the pol gene
PROTOCOL_NOTES: biochemical
ASSAY_CONTEXT: IC50 V106A (nM)
Listing of entries alongside the reported IC50.

Worked cases, IC50 given:
| COMPOUND | OBSERVED_VALUE |
| --- | --- |
| CCN1c2ncc(CCOc3ccc(C(=O)O)c4c3CCN(C(=O)OC)C4)cc2C(=O)N(C)c2cccnc21 [Entry 7002] | > 1000 nM |
| CCN1c2ncc(CCOc3ccc4cc(C(=O)NN)ccc4c3)cc2C(=O)N(C)c2cccnc21 [Entry 3002] | < 100 nM |

Query: Look up IC50: CCN1c2ncc(CCOc3ccc(CCC(=O)O)c4ccccc34)cc2C(=O)Nc2c(C)ccnc21 [Entry 1024]
Result: 100 to 1000 nM

Query: Look up IC50: CCN1c2ncc(CCOc3ccc(C(=O)O)c4c3CCCC4)cc2C(=O)N(C)c2ccc(OC)nc21 [Entry 5005]
Result: > 1000 nM

Query: Look up IC50: CCN1c2ncc(CCOc3ccc(C(=O)O)c4ccccc34)cc2C(=O)N(C)c2cccnc21 [Entry 2010]
Result: > 1000 nM

Query: Look up IC50: C=C(CC(=O)O)c1ccc(OCCc2cnc3c(c2)C(=O)N(C)c2cccnc2N3CC)c2ccccc12 [Entry 1049]
Result: > 1000 nM

Query: Look up IC50: CCN1c2ncc(CCOc3ccc(CC(C)C(=O)O)c4ccccc34)cc2C(=O)N(C)c2ccc(Cl)nc21 (stereo not drawn) [Entry 1044]
Result: > 1000 nM

Query: Look up IC50: CCN1c2ncc(CCOc3ccc(CCC(=O)O)c4ccccc34)cc2C(=O)Nc2c(C)cc(Cl)nc21 [Entry 1025]
Result: 100 to 1000 nM

Query: Look up IC50: CCN1c2ncc(CCOc3ccc(/C=C/C(=O)O)c4ccccc34)cc2C(=O)N(C)c2cccnc21 [Entry 1028]
Result: > 1000 nM

Query: Look up IC50: CCN1c2ncc(CCOc3cccc4c3CCCN4CC(=O)O)cc2C(=O)N(C)c2cccnc21 [Entry 6001]
Result: > 1000 nM
